Reference source for all entries: ChEMBL document CHEMBL5058577

The entries below are paired with their reported Population Mitochondria Different-Phenotype (%).
system: HEK-293T; assay: Multiplex assay against HEK293T; format: toxicity, cell-based; conditions: human, 48 h, 1 µM, compound concentration 1 uM, replicate 2
Write down the numeric answer in % and omit the unit.

CC(C)c1noc(N2CCC(COc3ccc(-c4ccc(S(C)(=O)=O)cc4)nc3)CC2)n1 = 14

We next turn to a different compound, shown below.
I have this compound here, CN[C@@H](C)C(=O)N[C@H](C(=O)N1CCC[C@H]1C(=O)Nc1snnc1-c1ccccc1)C1CCCCC1 , and I need its recorded Population Mitochondria Different-Phenotype (%).
29

* * *

tested on: HEK-293T; experiment: Multiplex assay against HEK293T; format: toxicity, cell-based; details: human, 12 h, 1 µM, compound concentration 1 uM, replicate 2
Entries and their measured Population Tubulin-Different-Phenotype (%) follow.
Report only the number, with the unit % understood.

Solved entries (count: 3):
Cc1c(CC(=O)O)c2cccnc2n1Cc1ccc(S(C)(=O)=O)cc1C(F)(F)F [FEVIPIPRANT] = 16
O=C(NCCN1CCC(n2c(=O)[nH]c3cc(Cl)ccc32)CC1)c1ccc(F)cc1 [HALOPEMIDE] = 29
Cc1noc(-c2ccc(-c3ccc(CC(=O)O)cc3)cc2)c1NC(=O)O[C@H](C)c1ccccc1Cl = 28

# query: Population Tubulin-Different-Phenotype (%) of entry Cc1cccc(NC(=O)CN2CCC(c3ccccn3)CC2)c1.Cl.Cl
22

// Population Tubulin-Different-Phenotype (%) lookup, key: Cl.NCCc1ccc(O)c(O)c1 [DOPAMINE HYDROCHLORIDE]
18

Entry CC(C)(C)c1cc(NC(=O)Nc2ccc(-c3cn4c(n3)sc3cc(OCCN5CCOCC5)ccc34)cc2)no1 [QUIZARTINIB] has what Population Tubulin-Different-Phenotype (%)?
26

Consider the compound shown here: Br.CS(=O)(=O)Nc1c(O)ccc2c1CCCC2C1=NCCN1 (centres undefined) What is its recorded Population Tubulin-Different-Phenotype (%)?
18

What value of Population Tubulin-Different-Phenotype (%) has been recorded for this entry: CN[C@@H](C)C(=O)N[C@H](C(=O)N1CCC[C@H]1C(=O)Nc1snnc1-c1ccccc1)C1CCCCC1 [GDC-0152]
26

Param item = CC(C)c1noc(N2CCC(COc3ccc(-c4ccc(S(C)(=O)=O)cc4)nc3)CC2)n1 [GSK-1292263] ; retrieve measured Population Tubulin-Different-Phenotype (%).
13

* * *

tested on: HEK-293T; experiment: Multiplex assay against HEK293T; type: toxicity, cell-based; settings: human, 48 h, 1 µM, compound concentration 1 uM, replicate 1
OBSERVATION TYPE: Population Healthy Nuclei (%)
The response must be a number in % with no trailing unit.

Solved cases below.
CN1CCN(c2cc(-c3ccccc3)nc(N)n2)CC1 = 78
N#Cc1cc(F)cc(-c2nc(-c3ccc(F)cn3)no2)c1 = 77
O=C1[C@H](Cc2ccc(O)cc2)N2C(=O)CCN(C(=O)NCc3ccccc3)[C@H]2CN1Cc1cccc2ccccc12 = 78
Cc1noc(-c2ccc(-c3ccc(CC(=O)O)cc3)cc2)c1NC(=O)O[C@H](C)c1ccccc1Cl = 82
N#Cc1c(Oc2cccc(OS(=O)(=O)CCCC(F)(F)F)c2)cccc1C(F)(F)F = 81

What measured Population Healthy Nuclei (%) goes with Cl.NCCc1ccc(O)c(O)c1 [DOPAMINE HYDROCHLORIDE] ?
78

Which Population Healthy Nuclei (%) is listed for Cc1sc2c(c1C)C(c1ccc(Cl)cc1)=N[C@@H](CC(=O)NCCCCCCCCNC(=O)COc1cccc3c1C(=O)N(C1CCC(=O)NC1=O)C3=O)c1nnc(C)n1-2 (some centres not stated) ?
58

Given the entry C[C@H](N)COC(=O)[C@@H](CCCCN)NC(=O)Cc1c(-c2ccc3ccccc3c2)[nH]c2c1ccc1ccccc12 , report its measured Population Healthy Nuclei (%).
78

I'd like to know its Population Healthy Nuclei (%). The compound in question is CC(/C=C1\SC(=S)N(CCCC(=O)Nc2ccc(C(=O)O)c(O)c2)C1=O)=C\c1ccccc1
79

I am curious: what Population Healthy Nuclei (%) value has been reported for CCCCC1=NC2(CCCC2)C(=O)N1Cc1ccc(-c2ccccc2-c2nnn[nH]2)cc1 ?
81

Look at this compound and give its reported Population Healthy Nuclei (%). CC(C)c1noc(N2CCC(COc3ccc(-c4ccc(S(C)(=O)=O)cc4)nc3)CC2)n1
81

Could you tell me which Population Healthy Nuclei (%) is on file for Cc1c(CC(=O)O)c2cccnc2n1Cc1ccc(S(C)(=O)=O)cc1C(F)(F)F ?
79

What value of Population Healthy Nuclei (%) has been recorded for this entry: NCCc1cn(S(=O)(=O)c2c(Cl)nc3sccn23)c2ccccc12.O=C(O)C(=O)O
77

Any idea what Population Healthy Nuclei (%) was measured for CCCOc1ccc2[nH]cc(C3=CCNCC3)c2n1.Cl ?
79

Returns the measured Population Healthy Nuclei (%) for the input compound. Input: Cc1cnc(-c2cc(N3CCN(C(=O)CCS(C)(=O)=O)CC3)ncc2Cl)c(C)c1
76

Recorded Population Healthy Nuclei (%) for COC[C@@H](c1ccc(C(F)(F)F)cc1)N1CCN(C2(C)CCN(C(=O)c3c(C)ncnc3C)CC2)C[C@@H]1C.O=C(O)/C=C\C(=O)O [VICRIVIROC MALEATE] , please?
80

Quick one: Population Healthy Nuclei (%) of CC(C)(C)c1cc(NC(=O)Nc2ccc(-c3cn4c(n3)sc3cc(OCCN5CCOCC5)ccc34)cc2)no1 ?
80

* * *

system: U2OS; assay: Multiplex assay against U2OS; assay type: toxicity, cell-based; details: human, 24 h, 10 µM, compound concentration 10 uM, replicate 2
Category | rule: reported Population Pyknosed Nuclei (%) within range, see zone 1 (below 7%), zone 2 (7% to below 9%), zone 3 (9% or more)

CCCOc1ccc2[nH]cc(C3=CCNCC3)c2n1.Cl = zone 1

Please classify: Cc1cnc(-c2cc(N3CCN(C(=O)CCS(C)(=O)=O)CC3)ncc2Cl)c(C)c1
zone 3

Into which bin does this compound go? CC(/C=C1\SC(=S)N(CCCC(=O)Nc2ccc(C(=O)O)c(O)c2)C1=O)=C\c1ccccc1
zone 3

Record CCCCCC(O)/C=C/[C@H]1C(=O)CC(O)C1C/C=C\CCCC(=O)O (some centres not stated) — which class?
zone 2

Hello team, could you let me know which band the following compound falls into: COc1cccc2c1c(NS(=O)(=O)c1ccc(Cl)s1)nn2Cc1cccc(CNC(=O)C(C)(C)O)c1
zone 1

Looking at CN(C)C(=O)Cn1cc(-c2ccc(-c3cncc4ccccc34)cc2)cn1 , which class would you pick?
zone 1

* * *

Recorded Population Pyknosed Nuclei (%) for the following compounds
tested on: Fibroblast; assay: Multiplex assay against human fibroblast; type: toxicity, cell-based; conditions: 48 h, 10 µM, compound concentration 10 uM, replicate 2
Numbers only here, please. The scale is %.

COc1cccc2c1c(NS(=O)(=O)c1ccc(Cl)s1)nn2Cc1cccc(CNC(=O)C(C)(C)O)c1 = 17

Which Population Pyknosed Nuclei (%) is listed for Cl.N=C(N)NC(=O)Cc1c(Cl)cccc1Cl [GUANFACINE HYDROCHLORIDE] ?
19

Returns the measured Population Pyknosed Nuclei (%) for the input compound. Input: N#Cc1cc(F)cc(-c2nc(-c3ccc(F)cn3)no2)c1
17

Sample Cc1onc(-c2ccccc2Cl)c1C(=O)N(C)c1ccc(Cl)cc1 — what was its Population Pyknosed Nuclei (%)?
12

Which Population Pyknosed Nuclei (%) is listed for CCCOc1ccc2[nH]cc(C3=CCNCC3)c2n1.Cl ?
4

* * *

Population Normal (%) for assorted molecules
test system: Fibroblast; test: Multiplex assay against human fibroblast; format: toxicity, cell-based; settings: 48 h, 10 µM, compound concentration 10 uM, replicate 2
Record the result as number plus unit.

# annotated cases, reported Population Normal (%) shown
N#Cc1cc(F)cc(-c2nc(-c3ccc(F)cn3)no2)c1 = 94%
N#Cc1c(Oc2cccc(OS(=O)(=O)CCCC(F)(F)F)c2)cccc1C(F)(F)F = 97%
CN(C)C(=O)Cn1cc(-c2ccc(-c3cncc4ccccc34)cc2)cn1 = 99%

Consider the record given below.
Observed Population Normal (%) on Fibroblast for CCCOc1ccc2[nH]cc(C3=CCNCC3)c2n1.Cl , please.
94%

* * *

test system: HEK-293T; experiment: Multiplex assay against HEK293T; assay type: toxicity, cell-based; conditions: human, 48 h, 1 µM, compound concentration 1 uM, replicate 2
OBSERVATION TYPE: Population Pyknosed Nuclei (%)
Provide the reading as a plain figure in %.

Br.CS(=O)(=O)Nc1c(O)ccc2c1CCCC2C1=NCCN1 (stereo not given) = 9
COc1ccccc1N1CCN(C[C@@H](C(=O)NC(C)(C)C)c2ccccc2)CC1.Cl.Cl = 9
CCc1cc2cc(NS(=O)(=O)c3ccc(C#N)cc3)ccc2n(CC)c1=O = 5
CC(/C=C1\SC(=S)N(CCCC(=O)Nc2ccc(C(=O)O)c(O)c2)C1=O)=C\c1ccccc1 = 6

Next compound, please.
What does the data say about its Population Pyknosed Nuclei (%)? Entry: CN[C@@H](C)C(=O)N[C@H](C(=O)N1CCC[C@H]1C(=O)Nc1snnc1-c1ccccc1)C1CCCCC1 [GDC-0152]
6
